# test-description: Bioavailability
# Assay type: ADME, organism-based
# measurement-conditions: rat, in vivo
value-kind: bioavailability (%)
Provide the reading as a plain figure in %.

Which bioavailability value is on record for CC(C)(N)C(=O)N[C@H](COCc1ccc(F)cc1F)C(=O)N1CCC2=NN(CC(F)(F)F)C(=O)[C@]2(Cc2ccccn2)C1 ?
59

---

# test-description: Plasma elimination half-life was determined in female Sprague-Dawley rats following intravenous (iv) administration of drug (1 mg/kg).
# Assay type: ADME, organism-based
# measurement-conditions: rat
value-kind: half-life (min)
Provide the reading as a plain figure in min.

Which half-life value is on record for CC(C)(N)C(=O)N[C@H](COCc1ccc(F)cc1F)C(=O)N1CCC2=NN(CC(F)(F)F)C(=O)[C@]2(Cc2ccccn2)C1 ?
114

---

# test-description: Maximum plasma concentration at a 1 mg/kg oral dose in female Sprague-Dawley rats
# Format: ADME, organism-based
# Set-up: dose 1 mg/kg, route oral
# measurement-conditions: rat
value-kind: Cmax (ng/mL)
Provide the reading as a plain figure in ng/mL.

Which Cmax value is on record for CC(C)(N)C(=O)N[C@H](COCc1ccc(F)cc1F)C(=O)N1CCC2=NN(CC(F)(F)F)C(=O)[C@]2(Cc2ccccn2)C1 ?
88

---

# test-description: Plasma clearance was determined in canine following intravenous (iv) administration of drug (1 mg/kg).
# Format: ADME, organism-based, Canis lupus familiaris
# measurement-conditions: dog
Items are presented alongside their recorded clearance.
Provide the reading as a plain figure in mL/min/kg.

// worked examples, clearance included
>>> recorded_result("CC(C)(N)C(=O)N[C@H](COCc1ccc(F)c(F)c1)C(=O)N1CCC2=NN(C(C)(C)C)C(=O)C2(Cc2ccccc2)C1 (stereo partly specified)")
19
>>> recorded_result("CC(C)(N)C(=O)N[C@H](COCc1ccc(F)cc1F)C(=O)N1CCC2=NN(CC(F)(F)F)C(=O)[C@]2(Cc2ccccn2)C1")
5.3
>>> recorded_result("CC(C)(N)C(=O)N[C@H](COCc1ccc(F)c(F)c1)C(=O)N1CCC2=NN(CC(F)(F)F)C(=O)C2(Cc2ccccc2)C1 (stereo partly specified)")
13

Which clearance value is on record for CN1N=C2CCN(C(=O)[C@@H](COCc3ccccc3)NC(=O)C(C)(C)N)C[C@@]2(Cc2ccccc2)C1=O ?
19

Which clearance value is on record for CC(C)(N)C(=O)N[C@H](COCc1ccccc1)C(=O)N1CCC2=NN(C(C)(C)C)C(=O)C2(Cc2ccccc2)C1 (stereo partly specified) ?
13

Which clearance value is on record for CN1N=C2CCN(C(=O)[C@@H](COCc3ccc(F)c(F)c3)NC(=O)C(C)(C)N)CC2(Cc2ccccc2)C1=O (stereo partly specified) ?
17

---

# test-description: Time taken by the compound to achieve maximum plasma concentration at a 1 mg/kg oral dose in male and female Beagle dogs.
# Assay type: ADME, organism-based, Canis lupus familiaris
# Design: dose 1 mg/kg, route oral
# measurement-conditions: both, dog
value-kind: Tmax (h)
Provide the reading as a plain figure in h.

Which Tmax value is on record for CC(C)(N)C(=O)N[C@H](COCc1ccc(F)cc1F)C(=O)N1CCC2=NN(CC(F)(F)F)C(=O)[C@]2(Cc2ccccn2)C1 ?
1.3

---

# test-description: Maximum plasma concentration at a 1 mg/kg oral dose in male and female Beagle dogs.
# Format: ADME, organism-based, Canis lupus familiaris
# Set-up: dose 1 mg/kg, route oral
# measurement-conditions: both, dog
value-kind: Cmax
Quick note: number first, unit second.

Which Cmax value is on record for CC(C)(N)C(=O)N[C@H](COCc1ccc(F)cc1F)C(=O)N1CCC2=NN(CC(F)(F)F)C(=O)[C@]2(Cc2ccccn2)C1 ?
260 ng/mL

---

# test-description: Volume of distribution was determined in canine following intravenous (iv) administration of drug (1 mg/kg).
# Type: ADME, organism-based, Canis lupus familiaris
# measurement-conditions: dog, in vivo
Threshold 4 L/kg: Vd strictly smaller gives met, otherwise not met.

// known answers, use as guide
>>> label_class("CC(C)(N)C(=O)N[C@H](COCc1ccc(F)c(F)c1)C(=O)N1CCC2=NN(C(C)(C)C)C(=O)C2(Cc2ccccc2)C1 (stereo partly specified)")
"not met"
>>> label_class("CN1N=C2CCN(C(=O)[C@@H](COCc3ccc(F)c(F)c3)NC(=O)C(C)(C)N)CC2(Cc2ccccc2)C1=O (stereo partly specified)")
"met"
>>> label_class("CN1N=C2CCN(C(=O)[C@@H](COCc3ccccc3)NC(=O)C(C)(C)N)C[C@@]2(Cc2ccccc2)C1=O")
"met"
>>> label_class("CC(C)(N)C(=O)N[C@H](COCc1ccc(F)c(F)c1)C(=O)N1CCC2=NN(CC(F)(F)F)C(=O)C2(Cc2ccccc2)C1 (stereo partly specified)")
"not met"
>>> label_class("CC(C)(N)C(=O)N[C@H](COCc1ccc(F)cc1F)C(=O)N1CCC2=NN(CC(F)(F)F)C(=O)[C@]2(Cc2ccccn2)C1")
"met"

Switching to the query record.
Does this compound meet the criterion Vd < 4 L/kg? CC(C)(N)C(=O)N[C@H](COCc1ccccc1)C(=O)N1CCC2=NN(C(C)(C)C)C(=O)C2(Cc2ccccc2)C1 (stereo partly specified)
met

---

# target-under-test: Growth hormone secretagogue receptor type 1 (Homo sapiens, UniProt Q92847)
# Sequence (Q92847 whole entry): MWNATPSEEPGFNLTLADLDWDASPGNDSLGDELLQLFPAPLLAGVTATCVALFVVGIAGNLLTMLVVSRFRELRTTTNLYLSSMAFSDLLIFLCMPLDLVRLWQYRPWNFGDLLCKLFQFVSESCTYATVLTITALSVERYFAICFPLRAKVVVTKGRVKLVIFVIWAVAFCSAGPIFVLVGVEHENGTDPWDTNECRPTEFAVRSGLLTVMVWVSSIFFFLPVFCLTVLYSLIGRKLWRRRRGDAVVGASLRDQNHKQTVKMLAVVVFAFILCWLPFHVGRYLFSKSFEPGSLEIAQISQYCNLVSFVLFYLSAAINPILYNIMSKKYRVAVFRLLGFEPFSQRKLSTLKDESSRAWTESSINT
# test-description: In vitro binding affinity against human type 1a growth hormone secretagogue receptor (hGHS-R1a), using [125I]ghrelin as radioligand.
value-kind: log10 of Ki (log10 of the value in nM)
Record value = log10 of Ki given in nM.

Which log10 of Ki value is on record for CC(C)(N)C(=O)N[C@H](COCc1ccc(F)c(F)c1)C(=O)N1CCC2=NN(C(C)(C)C)C(=O)C2(Cc2ccccc2)C1 (stereo not given in full) ?
-0.47

---

# test-description: Lipophilicity by octanol water distribution coefficient
# Type: physicochemical
value-kind: logD
The answer should be written as a number, with no unit following it.

// worked examples, logD included
>>> recorded_result("CC(C)(N)C(=O)N[C@H](COCc1ccc(F)cc1F)C(=O)N1CCC2=NN(CC(F)(F)F)C(=O)[C@]2(Cc2ccccn2)C1")
1.6
>>> recorded_result("CN1N=C2CCN(C(=O)[C@@H](COCc3ccccc3)NC(=O)C(C)(C)N)C[C@@]2(Cc2ccccc2)C1=O")
1.7
>>> recorded_result("CN1N=C2CCN(C(=O)[C@@H](COCc3ccc(F)c(F)c3)NC(=O)C(C)(C)N)CC2(Cc2ccccc2)C1=O (stereo partly specified)")
1.7
>>> recorded_result("CC(C)(N)C(=O)N[C@H](COCc1ccccc1)C(=O)N1CCC2=NN(C(C)(C)C)C(=O)C2(Cc2ccccc2)C1 (stereo partly specified)")
2.9

Which logD value is on record for CC(C)(N)C(=O)N[C@H](COCc1ccc(F)c(F)c1)C(=O)N1CCC2=NN(CC(F)(F)F)C(=O)C2(Cc2ccccc2)C1 (stereo partly specified) ?
3

Which logD value is on record for CC(C)(N)C(=O)N[C@H](COCc1ccc(F)c(F)c1)C(=O)N1CCC2=NN(C(C)(C)C)C(=O)C2(Cc2ccccc2)C1 (stereo partly specified) ?
2.9

---

# test-description: Plasma clearance was determined in female Sprague-Dawley rats following intravenous (iv) administration of drug (1 mg/kg).
# Type: ADME, organism-based
# measurement-conditions: rat
value-kind: clearance (mL/min/kg)
Provide the reading as a plain figure in mL/min/kg.

Which clearance value is on record for CC(C)(N)C(=O)N[C@H](COCc1ccc(F)cc1F)C(=O)N1CCC2=NN(CC(F)(F)F)C(=O)[C@]2(Cc2ccccn2)C1 ?
46

---

# test-description: Oral half life was determined
# Format: ADME, organism-based, Canis lupus familiaris
# measurement-conditions: dog, in vivo
value-kind: half-life (h)
Provide the reading as a plain figure in h.

Which half-life value is on record for CC(C)(N)C(=O)N[C@H](COCc1ccc(F)cc1F)C(=O)N1CCC2=NN(CC(F)(F)F)C(=O)[C@]2(Cc2ccccn2)C1 ?
4.2

---

Items are presented alongside their recorded half-life.
# test-description: Plasma elimination half-life (08 h) was determined in canine following intravenous (iv) administration (1 mg/kg).
# Assay type: ADME, organism-based, Canis lupus familiaris
# measurement-conditions: dog
Provide the reading as a plain figure in h.

// worked examples, half-life included
>>> recorded_result("CC(C)(N)C(=O)N[C@H](COCc1ccc(F)c(F)c1)C(=O)N1CCC2=NN(CC(F)(F)F)C(=O)C2(Cc2ccccc2)C1 (stereo partly specified)")
4.7
>>> recorded_result("CC(C)(N)C(=O)N[C@H](COCc1ccccc1)C(=O)N1CCC2=NN(C(C)(C)C)C(=O)C2(Cc2ccccc2)C1 (stereo partly specified)")
2.5

Which half-life value is on record for CC(C)(N)C(=O)N[C@H](COCc1ccc(F)c(F)c1)C(=O)N1CCC2=NN(C(C)(C)C)C(=O)C2(Cc2ccccc2)C1 (stereo partly specified) ?
3.9

Which half-life value is on record for CC(C)(N)C(=O)N[C@H](COCc1ccc(F)cc1F)C(=O)N1CCC2=NN(CC(F)(F)F)C(=O)[C@]2(Cc2ccccn2)C1 ?
3.7

Which half-life value is on record for CN1N=C2CCN(C(=O)[C@@H](COCc3ccc(F)c(F)c3)NC(=O)C(C)(C)N)CC2(Cc2ccccc2)C1=O (stereo partly specified) ?
2.7

Which half-life value is on record for CN1N=C2CCN(C(=O)[C@@H](COCc3ccccc3)NC(=O)C(C)(C)N)C[C@@]2(Cc2ccccc2)C1=O ?
1.3

Hey, just so you know, these numbers are from ChEMBL document CHEMBL1134965.
